The measurements presented in this section are drawn from patent US10221163B2.

# system.name: VIM-1 (Pseudomonas aeruginosa (strain ATCC 15692 / DSM 22644 / CIP 104116 / JCM 14847 / LMG 12228 / 1C / PRS 101 / PAO1), UniProt A0A0F7KYQ8)
# assay.method.text: biochemical
# cond: fluorescence assay, CCF2-FA substrate, 30 pM enzyme, 2 hours at 25° C.; read-out: VIM-1 IC50
Catalogue of pIC50 values
The value called pIC50 is obtained by taking minus log10 of the concentration in mol/L.

Solved cases below.
compound="Cl.Cn1c(N)nc2c(-c3ccc(S(=O)(=O)NCCN)c(S(N)(=O)=O)c3-c3nn[nH]n3)cccc21 [Example 10, hydrochloride]" assay_readout=pIC50 endpoint_result=9.75
compound="NC[C@H](O)CNS(=O)(=O)c1ccc(-c2cccc3[nH]c(N)nc23)c(-c2nn[nH]n2)c1S(N)(=O)=O [Example 304]" assay_readout=pIC50 endpoint_result=9.68
compound="Nc1nc2c(-c3ccc(S(=O)(=O)NC4(CO)CCNC4)c(S(N)(=O)=O)c3-c3nnn[nH]3)cccc2s1 (stereo not shown) [Example 84]" assay_readout=pIC50 endpoint_result=9.57

Task: // query pIC50 value for entry NCC(CN)NS(=O)(=O)c1ccc(-c2ccc3nccn3c2)c(-c2nn[nH]n2)c1S(N)(=O)=O [Example 406]
Result: 9.76

###

# system.name: NDM-1 (Klebsiella pneumoniae, UniProt C7C422)
# Sequence (C7C422 whole entry, looked up, species assumed): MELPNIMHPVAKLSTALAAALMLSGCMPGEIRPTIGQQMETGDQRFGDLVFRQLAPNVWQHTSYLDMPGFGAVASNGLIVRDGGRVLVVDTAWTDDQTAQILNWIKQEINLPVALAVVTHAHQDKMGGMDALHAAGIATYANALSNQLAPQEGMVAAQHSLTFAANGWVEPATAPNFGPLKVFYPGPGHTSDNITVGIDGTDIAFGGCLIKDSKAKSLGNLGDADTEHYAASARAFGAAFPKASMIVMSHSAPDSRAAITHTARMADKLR
# assay.method.text: biochemical
# Assay type: biochemical
# cond: fluorescence assay, CCF2-FA substrate, 1 pM enzyme, 2 hours at 25° C.; read-out: NDM-1 IC50
// NB: equality with 300 pM counts as F; only IC50 strictly below is T

Example entries and their recorded answers appear below.
molecule=Nc1nc2c(-c3ccc(S(=O)(=O)NCCC4CNC4)c(S(N)(=O)=O)c3-c3nnn[nH]3)cccc2s1 discrete_label=T
molecule=Nc1nc2c(-c3ccc(S(=O)(=O)N4CC[C@@H](N)C4)c(S(N)(=O)=O)c3-c3nnn[nH]3)cccc2s1 discrete_label=F
molecule="Nc1nc2c(-c3ccc(S(=O)(=O)NC4(CO)CCNC4)c(S(N)(=O)=O)c3-c3nnn[nH]3)cccc2s1 (stereo not drawn) [Example 83]" discrete_label=T
molecule=CNCCNS(=O)(=O)c1ccc(-c2cccc3sc(N)nc23)c(-c2nnn[nH]2)c1S(N)(=O)=O discrete_label=F
molecule=Cc1cc(-c2ccc(S(=O)(=O)NC[C@@H](O)CN)c(S(N)(=O)=O)c2-c2nn[nH]n2)cnc1N discrete_label=T

Now examine the next entry.
Task: Quick check: does CN(C)C1CN(S(=O)(=O)c2ccc(-c3cccc4sc(N)nc34)c(-c3nnn[nH]3)c2S(N)(=O)=O)C1 have IC50 under 300 pM?
Result: F

###

Catalogue of IC50 values
# system.name: UniProt:C7C422
# assay.method.text: biochemical
# Assay type: biochemical
# cond: fluorescence assay, CCF2-FA substrate, 1 pM enzyme, 2 hours at 25° C.; read-out: NDM-1 IC50
Express the result in nM but write the number alone.

compound="CNc1ccc(-c2ccc(S(=O)(=O)NCCN)c(S(N)(=O)=O)c2-c2nn[nH]n2)cn1 [Example 243]" assay_readout=IC50 unit_abbreviation=nM endpoint_result=0.276
compound="Nc1nc2c(-c3ccc(S(=O)(=O)N[C@H]4C[C@H](N)C4)c(S(N)(=O)=O)c3-c3nnn[nH]3)cccc2s1 [Example 71]" assay_readout=IC50 unit_abbreviation=nM endpoint_result=0.0612
compound="Nc1nc2c(-c3ccc(S(=O)(=O)NCC4(CO)CC4)c(S(N)(=O)=O)c3-c3nnn[nH]3)cccc2s1 [Example 37]" assay_readout=IC50 unit_abbreviation=nM endpoint_result=0.00769

Let us examine a further case.
Task: Hi! What's the reported IC50 for Nc1ccc(-c2ccc(S(=O)(=O)NCCc3ncc[nH]3)c(S(N)(=O)=O)c2-c2nn[nH]n2)cn1 [Example 218] on UniProt:C7C422?
Result: 0.786

###

# Test system: Serratia marcescens expressing IMP-1 (CL5741)
# Assay type: cell-based
# cond: IMP-1 strain CL5741, with imipenem 1 μg/ml, 95% inhibition of growth
assay.readout: Serratia marcescens MITC95
Just so you know, I need the unit written after the number.

Solved cases below.
mol=NCc1ncc(-c2cccc(-c3ccc(S(=O)(=O)N[C@@H]4CCNC4)c(S(N)(=O)=O)c3-c3nn[nH]n3)c2)[nH]1 assay_readout="Serratia marcescens MITC95" endpoint_result="0.7813 µM"
mol=Nc1ccc(-c2ccc(S(=O)(=O)NC[C@@H]3CNCCN3)c(S(N)(=O)=O)c2-c2nn[nH]n2)cn1 assay_readout="Serratia marcescens MITC95" endpoint_result="0.7813 µM"
mol=C[N+](C)(C)CCCNS(=O)(=O)c1ccc(-c2cccc3sc(N)nc23)c(-c2nnn[nH]2)c1S(N)(=O)=O.O=C([O-])C(F)(F)F assay_readout="Serratia marcescens MITC95" endpoint_result="3.125 µM"

Task: // query Serratia marcescens MITC95 value for entry Nc1ccc(-c2ccc(S(=O)(=O)N3CCNCC3)c(S(N)(=O)=O)c2-c2nn[nH]n2)cn1
Result: 0.7813 µM

Task: What would you report for NCCNS(=O)(=O)c1ccc(-c2cccc3[nH]c([C@@H](N)CO)nc23)c(-c2nn[nH]n2)c1S(N)(=O)=O ?
Result: 3.125 µM

Task: What would you report for NCCNS(=O)(=O)c1ccc(-c2cccc3[nH]c(C4CNC4)nc23)c(-c2nn[nH]n2)c1S(N)(=O)=O ?
Result: 1.563 µM

Task: What would you report for NCc1nc2c(-c3ccc(S(=O)(=O)NC[C@H](O)CN)c(S(N)(=O)=O)c3-c3nn[nH]n3)cccc2s1 ?
Result: 1.563 µM

###

# system.name: NDM-1 (Klebsiella pneumoniae, UniProt C7C422)
# assay.method.text: biochemical
# Type: biochemical
# cond: fluorescence assay, CCF2-FA substrate, 1 pM enzyme, 2 hours at 25° C.; read-out: NDM-1 IC50
Catalogue of IC50 values
Express the result in nM but write the number alone.

Solved cases below.
mol=CN1CCN(S(=O)(=O)c2ccc(-c3cccc4sc(N)nc34)c(-c3nnn[nH]3)c2S(N)(=O)=O)CC1 system_name="NDM-1 (Klebsiella pneumoniae, UniProt C7C422)" unit_abbreviation=nM endpoint_result=0.825
mol=Nc1nc2c(-c3ccc(S(=O)(=O)N4CCC(CO)CC4)c(S(N)(=O)=O)c3-c3nnn[nH]3)cccc2s1 system_name="NDM-1 (Klebsiella pneumoniae, UniProt C7C422)" unit_abbreviation=nM endpoint_result=3.02
mol=NCC(CN)NS(=O)(=O)c1ccc(-c2cccc3ccc(N)nc23)c(-c2nn[nH]n2)c1S(N)(=O)=O system_name="NDM-1 (Klebsiella pneumoniae, UniProt C7C422)" unit_abbreviation=nM endpoint_result=0.0325

Let us examine a further case.
Task: // query IC50 value for entry NCCNS(=O)(=O)c1ccc(-c2cccc3oc(C(=O)O)nc23)c(-c2nn[nH]n2)c1S(N)(=O)=O
Result: 0.0757

###

# Tested on: Pseudomonas aeruginosa MB9798 vs MB9799
# cond: fold difference between efflux+ (MB9798) and efflux− (MB9799) strains; imipenem at 2 μg/mL
assay.readout: Efflux ratio
Would you mind answering with just the numeric figure?

Solved cases below.
mol=CNc1nc2c(-c3ccc(S(=O)(=O)NCCN)c(S(N)(=O)=O)c3-c3nn[nH]n3)cccc2[nH]1 endpoint_result=0.50
mol=C[N+](C)(C)CCNS(=O)(=O)c1ccc(-c2cccc3sc(N)nc23)c(-c2nnn[nH]2)c1S(N)(=O)=O.O=C([O-])C(F)(F)F endpoint_result=1.00
mol=NS(=O)(=O)c1c(S(=O)(=O)N[C@@H]2CNC[C@@H]2O)ccc(-c2cccc3[nH]nnc23)c1-c1nn[nH]n1 endpoint_result=0.50
mol=NCCNCCNS(=O)(=O)c1ccc(-c2ccc(N)nc2)c(-c2nn[nH]n2)c1S(N)(=O)=O endpoint_result=2.00
mol=NCc1nc2cc(-c3ccc(S(=O)(=O)N[C@@H](CN)CO)c(S(N)(=O)=O)c3-c3nn[nH]n3)ccc2[nH]1 endpoint_result=1.00

Task: // query Efflux ratio value for entry C[C@H](CN)NS(=O)(=O)c1ccc(-c2ccc(N)nc2)c(-c2nn[nH]n2)c1S(N)(=O)=O
Result: 0.75

Task: What would you report for NCCNS(=O)(=O)c1ccc(-c2ccc3[nH]c(CN)nc3c2)c(-c2nn[nH]n2)c1S(N)(=O)=O ?
Result: 1.00

###

# system.name: NDM-1 (Klebsiella pneumoniae, UniProt C7C422)
# assay.method.text: biochemical
# Type: biochemical
# cond: fluorescence assay, CCF2-FA substrate, 1 pM enzyme, 2 hours at 25° C.; read-out: NDM-1 IC50
So basically every entry gets a class from its IC50, ranges being low: < 0.06 nM; moderate: ≥ 0.06 nM and < 0.2 nM; high: ≥ 0.2 nM

molecule="Nc1nc2c(-c3ccc(S(=O)(=O)NC[C@@H]4CCCN4)c(S(N)(=O)=O)c3-c3nn[nH]n3)cccc2[nH]1 [Example 262]" discrete_label=moderate
molecule="Nc1nc2c(-c3ccc(S(=O)(=O)N4CC(N)C4)c(S(N)(=O)=O)c3-c3nn[nH]n3)cccc2s1 [Example 147]" discrete_label=high
molecule="Nc1ccc(-c2ccc(S(=O)(=O)NC[C@H]3CNCCN3)c(S(N)(=O)=O)c2-c2nn[nH]n2)cn1 [Example 315]" discrete_label=moderate
molecule="NC[C@H](N)CNS(=O)(=O)c1ccc(-c2cnccc2N)c(-c2nn[nH]n2)c1S(N)(=O)=O [Example 223]" discrete_label=high
molecule="Nc1nc2c(-c3ccc(S(=O)(=O)N[C@@H]4C[C@H]4N)c(S(N)(=O)=O)c3-c3nn[nH]n3)cccc2s1 [Example 388]" discrete_label=moderate

Task: Exam item: assign NS(=O)(=O)c1c(S(=O)(=O)N[C@@H]2CCNC2)ccc(-c2cccc3[nH]nnc23)c1-c1nn[nH]n1 [Example 235] to the correct category.
Result: low

Task: What would you report for CNc1nc2c(-c3ccc(S(=O)(=O)N[C@H]4CCNC4)c(S(N)(=O)=O)c3-c3nn[nH]n3)cccc2[nH]1 [Example 295] ?
Result: low

Task: What would you report for NCCNS(=O)(=O)c1ccc(-c2cccn3ccnc23)c(-c2nn[nH]n2)c1S(N)(=O)=O [Example 361] ?
Result: moderate

Task: What would you report for Nc1nc2c(-c3ccc(S(=O)(=O)N[C@H]4CNC[C@H]4N)c(S(N)(=O)=O)c3-c3nn[nH]n3)cccc2[nH]1 [Example 241] ?
Result: low

Task: What would you report for C[C@H](CN)NS(=O)(=O)c1ccc(-c2cc(F)cc3[nH]c(N)nc23)c(-c2nn[nH]n2)c1S(N)(=O)=O [Example 396] ?
Result: low

Task: What would you report for NC[C@H](N)CNS(=O)(=O)c1ccc(-c2cccnc2N)c(-c2nn[nH]n2)c1S(N)(=O)=O [Example 213] ?
Result: moderate
